# Experimental Target: T1, human GPC3 on cells (human, UniProt P51654 25-554)
# T1 construct: whole, on cells; over-expressed on CHOK1 cells or endogenous on HEPG2, Hep3B and Huh-7 hepatocellular carcinoma cells; the cell line is named under assay; also called GPC3-CHOK1 cells; human GPC3 over-expressed CHOK1 cells
# Assay Protocol: FACS, Huh-7 cells
Reported Property: EC50 (pM)
Express it in pM; write the number only.

Write down EC50 measured for item Y035 CDRs with Hu 52H5D3B8-7 FRs (antibody, V domains shown) VH: EVQLVQSGAEVKKPGASVKVSCKASGYTFTDYEMHWVRQAPGQGLEWMGAIHPGSGDTAYNQRFKGRVTMTADKSISTAYMELSRLRSDDTAVYYCTRFYSYAYWGQGTLVTVSS VL: DVVMTQTPLSLSVTPGQPASISCRSSQSLVHSNGNTYLQWYLQKPGQSPQLLIYKVSNRFSGVPDRFSGSGSGTDFTLKISRVEAEDVGVYYCSQSIYVPYTFGGGTKVEIK
667

Write down EC50 measured for item Hu 52H5D3B8-7/8 CDRs with Y035 FRs (antibody, V domains shown) VH: EVQLVQSGAEVKKPGASVKVSCKASGYTHSDYEMHWVRQAPGQGLEWMGAIHPGSGGTAYNQKFKGRVTITADKSTSTAYMELSSLRSEDTAVYYCARFYSYAYWGQGTLVTVSA VL: DIVMTQTPLSLPVTPGEPASISCRSSQSLVHSNGNTYLQWYLQKPGQSPQLLIYKVSNRFSGVPDRFSGSGSGTDFTLKISRVEAEDVGVYYCSQSIHVPYTFGQGTKLEIKR
782

Write down EC50 measured for item Hu 52H5D3B8-8 (antibody, V domains shown, humanized 52H5D3B8; also called 52H5D3B8 VH3 + VL1) VH: EVQLVQSGAEVKKPGASVKVSCKASGYTFTDYEMHWVRQAPGQGLEWMGAIHPGSGGTAYNQKFKGRVTMTADKSISTAYMELSRLRSDDTAVYYCTRFYSYAYWGQGTLVTVSS VL: DVVMTQTPLSLSVTPGQPASISCRSSQSLVHSNGNTYLQWYLQKPGQSPQLLIYKVSNRFSGVPDRFSGSGSGTDFTLKISRVEAEDVGVYFCSQSIHVPYTFGGGTKVEIK
418

Write down EC50 measured for item Hu 52H5D3B8-7 (antibody, V domains shown, humanized 52H5D3B8; also called 52H5D3B8 VH3 + VL0) VH: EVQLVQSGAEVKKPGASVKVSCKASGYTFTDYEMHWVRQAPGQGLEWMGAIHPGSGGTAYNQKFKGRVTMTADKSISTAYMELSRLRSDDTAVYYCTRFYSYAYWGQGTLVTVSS VL: DVVMTQTPLSLSVTPGQPASISCRSSQSLVHSNGNTYLQWYLQKPGQSPQLLIYKVSNRFSGVPDRFSGSGSGTDFTLKISRVEAEDVGVYYCSQSIHVPYTFGGGTKVEIK
464
